Assay: Drug concentrations in Rhesus macaque colorectal tissue explants (LC-MS/MS)
Assay type: in vitro ADME, Rhesus macaque (Macaca mulatta)
Conditions: monkey, colorectal tissue explants, Rh. macaque colorectal explants; Single gel, High [ ]: TFV 70 µM or MVC […]; 3 h exposure; read-out: Cmax
PARAMETER: Cmax (ng/g)

[
  {
    "MOLECULE": "C[C@H](Cn1cnc2c(N)ncnc21)OCP(=O)(O)O [TFV, Tenofovir]",
    "PARAMETER": "Cmax",
    "QUANTITATIVE RESULT": 20200
  }
]

* * *

Assay: Drug concentrations in human colorectal tissue explants (LC-MS/MS)
Format: in vitro ADME
Conditions: human, colorectal tissue explants, Human colorectal explants; Single gel, Low [ ]: TFV 7 µM or MVC […]; 3 h exposure; read-out: Cmax
PARAMETER: Cmax (ng/g)

[
  {
    "COMPOUND": "C[C@H](Cn1cnc2c(N)ncnc21)OCP(=O)(O)O [TFV, Tenofovir]",
    "PARAMETER": "Cmax",
    "UNITS SYMBOL": "ng/g",
    "QUANTITATIVE RESULT": 1320
  }
]

* * *

Assay: Drug concentrations in Rhesus macaque vaginal tissue explants (LC-MS/MS)
Type: in vitro ADME, Rhesus macaque (Macaca mulatta)
Details: monkey, vaginal tissue explants, Rh. macaque vaginal explants; Single gel, Low [ ]: TFV 7 µM or MVC […]; 3 h exposure; read-out: Cmax

[
  {
    "MOLECULE": "C[C@H](Cn1cnc2c(N)ncnc21)OCP(=O)(O)O",
    "Cmax": "540 ng/g"
  }
]

* * *

Experiment: Drug concentrations in human ecto-cervical tissue explants (LC-MS/MS)
Conditions: human, ecto-cervical tissue explants, Cmax, Human ecto-cervical explants; Comb. gel, Low [ ]: TFV 7 µM + MVC […]; 3 h exposure

[
  {
    "MOLECULE": "C[C@H](Cn1cnc2c(N)ncnc21)OCP(=O)(O)O",
    "Cmax / ng/g": 2380
  }
]

* * *

Test: Drug concentrations in human colorectal tissue explants (LC-MS/MS)
Type: in vitro ADME
Conditions: human, colorectal tissue explants, Human colorectal explants; Comb. gel, High [ ]: TFV 70 µM + MVC […]; 3 h exposure; read-out: Cmax
PARAMETER: Cmax (ng/g)

[
  {
    "MOLECULE": "C[C@H](Cn1cnc2c(N)ncnc21)OCP(=O)(O)O",
    "UNITS SYMBOL": "ng/g",
    "QUANTITATIVE RESULT": 3670
  }
]

* * *

Assay: Drug concentrations in human colorectal tissue explants (LC-MS/MS)
Assay type: in vitro ADME
Conditions: human, colorectal tissue explants, Human colorectal explants; Single gel, High [ ]: TFV 70 µM or MVC […]; 3 h exposure; read-out: Cmax
PARAMETER: Cmax (ng/g)

[
  {
    "MOLECULE": "C[C@H](Cn1cnc2c(N)ncnc21)OCP(=O)(O)O [TFV, Tenofovir]",
    "QUANTITATIVE RESULT": 2920
  }
]

* * *

Experiment: Drug concentrations in Rhesus macaque colorectal tissue explants (LC-MS/MS)
Type: in vitro ADME, Rhesus macaque (Macaca mulatta)
Details: monkey, colorectal tissue explants, Rh. macaque colorectal explants; Comb. gel, Low [ ]: TFV 7 µM + MVC […]; 3 h exposure; read-out: Cmax

[
  {
    "MOLECULE": "C[C@H](Cn1cnc2c(N)ncnc21)OCP(=O)(O)O",
    "Cmax, ng/g": 9190
  }
]
